Hey, just so you know, these numbers are from patent US20260207704A1.

- SYSTEM_NAME: beta-catenin (human)
- Sequence (B6V8E6 146-665 limits assumed): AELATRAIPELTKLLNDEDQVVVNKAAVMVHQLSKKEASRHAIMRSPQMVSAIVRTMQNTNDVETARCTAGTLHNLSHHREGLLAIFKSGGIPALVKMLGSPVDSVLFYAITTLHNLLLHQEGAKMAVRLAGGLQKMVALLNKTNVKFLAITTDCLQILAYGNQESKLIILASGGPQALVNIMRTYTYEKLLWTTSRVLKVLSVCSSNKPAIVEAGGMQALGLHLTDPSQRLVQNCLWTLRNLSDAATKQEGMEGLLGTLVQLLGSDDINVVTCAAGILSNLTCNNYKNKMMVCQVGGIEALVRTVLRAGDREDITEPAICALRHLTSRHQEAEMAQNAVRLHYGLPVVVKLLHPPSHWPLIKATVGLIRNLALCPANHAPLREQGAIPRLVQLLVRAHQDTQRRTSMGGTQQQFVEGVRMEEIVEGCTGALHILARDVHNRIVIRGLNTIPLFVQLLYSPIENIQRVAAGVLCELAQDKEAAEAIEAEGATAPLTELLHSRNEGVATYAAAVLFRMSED
- PROTOCOL_SUMMARY: cell-based or functional assay
*1 amine or outer side, *2 acyl side, *3 side chain or, on linkers, in order; H or OH if unused. Bridges are numbered along the chain shown (N, C = ends). Primed or numbered codes have the meaning given here. [ ]: non-standard residue; d: D form. PyrS2(6) = (S)-3-amino-1-((pent-4-en-1-yloxy)carbonyl)pyrrolidine-3-carboxylic acid, stapled with another olefin-containing amino acid residue through the olefin group, O=C(OCCCC=[*:3])N1CC[C@@](N[*:1])(C(=O)[*:2])C1; B5(4) = 2-amino-2-(pent-4-en-1-yl)hept-6-enoic acid, stapled through each of its two olefin groups with other olefin-containing amino acid residues, O=C(C(CCCC=[*:3])(CCCC=[*:4])N[*:1])[*:2]; PyrS2(5) = (S)-3-amino-1-((pent-4-en-1-yloxy)carbonyl)pyrrolidine-3-carboxylic acid, C=CCCCOC(=O)N1CC[C@@](N[*:1])(C(=O)[*:2])C1; B5(5) = 2-amino-2-(pent-4-en-1-yl)hept-6-enoic acid (two olefin arms), C=CCCCC(CCCC=C)(N[*:1])C(=O)[*:2]; Phe(3-COOH) = N[C@@H](Cc1cccc(C(=O)O)c1)C(=O)O; Bta = N[C@@H](Cc1csc2ccccc12)C(=O)O; αAllylPro = C=CC[C@@]1(C(=O)O)CCCN1; tBuAla = CC(C)(C)C[C@H](N)C(=O)O; 3Thi = N[C@@H](Cc1ccsc1)C(=O)O; PyrS2(4) = not defined here; GlnR = not defined here; PL3 = not defined here; B5 = not defined here; Aib = CC(C)(N)C(=O)O
REPORTED_METRIC: NanoBRET Abs IC50

Use the examples below as a reference point.
# BINDER, VAL
data = [
    ("Ac-[αAllylPro]DL[B5(5)]DDAAFK[PyrS2(5)][3Thi][Bta][GlnR]-NH2 (bridge 10-14; not fully specified (bridges); printed as Ac-PL3-Asp-Leu-B5-Asp-Asp-Ala-Ala-Phe-Lys*3-PyrS2-3Thi-BztA-GlnR*3-NH2; reading uncertain) [I-4]", "> 10 µM"),
    ("Ac-[PL3]DL[B5]D[Phe(3-COOH)]AAFK[PyrS2(4)][3Thi][Bta][GlnR]-NH2 (staple 1-4; bridge 10-14; not fully specified (residue 10); printed as Ac-PL3-Asp-Leu-B5-Asp-3COOHF-Ala-Ala-Phe-dLys*3-PyrS2-3Thi-BztA-GlnR*3-NH2; reading uncertain; also: PyrS2 tied into a staple, partner not placed) [I-10]", "> 10 µM"),
]

Problem: Fill in: NanoBRET Abs IC50 of Ac-[αAllylPro]D[tBuAla][B5(4)]D[Phe(3-COOH)]AAFK[PyrS2(6)][3Thi][Bta][GlnR]-NH2 (bridge 10-14; not fully specified (bridges); printed as Ac-PL3-Asp-Npg-B5-Asp-3COOHF-Ala-Ala-Phe-Lys*3-PyrS2-3Thi-BztA-GlnR*3-NH2; reading uncertain) [I-32] is ___
Solution: < 1.5 µM

Problem: Fill in: NanoBRET Abs IC50 of Ac-[αAllylPro]E[tBuAla][B5(5)]E[Phe(3-COOH)][Aib]AFK[PyrS2(5)][3Thi][Bta][GlnR]A-NH2 (bridge 10-14; not fully specified (bridges); printed as Ac-PL3-Glu-Npg-B5-Glu-3COOHF-Aib-Ala-Phe-Lys*3-PyrS2-3Thi-BztA-GlnR*3-Ala-NH2; reading uncertain) [I-470] is ___
Solution: > 10 µM
